Measured ΔTm Average by item
# measured_target: UniProt:E9AMP2
# Sequence (E9AMP2 1-422): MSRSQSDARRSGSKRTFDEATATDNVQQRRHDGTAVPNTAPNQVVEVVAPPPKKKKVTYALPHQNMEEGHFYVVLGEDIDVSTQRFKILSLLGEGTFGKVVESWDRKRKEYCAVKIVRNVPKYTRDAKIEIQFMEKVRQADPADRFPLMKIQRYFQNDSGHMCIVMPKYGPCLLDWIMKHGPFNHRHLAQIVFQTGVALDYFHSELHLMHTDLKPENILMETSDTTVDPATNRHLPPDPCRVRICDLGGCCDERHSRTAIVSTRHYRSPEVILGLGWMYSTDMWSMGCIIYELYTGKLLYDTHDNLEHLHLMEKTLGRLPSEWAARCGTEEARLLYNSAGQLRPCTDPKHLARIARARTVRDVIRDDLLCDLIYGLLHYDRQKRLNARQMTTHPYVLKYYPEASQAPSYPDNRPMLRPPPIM
# experiment_notes: biochemical
# Format: binding
# test_conditions: DSF, 10 µM compound, 2 µM LmxCLK1, mean of two runs
Numbers only; they are read as °C.

{"columns": ["molecule", "ΔTm Average, °C"],
 "data": [
  ["O=C(NOCC(O)CO)c1cc(Br)c(F)c(F)c1Nc1ccc(I)cc1F (stereo not shown)", 0.2],
  ["CN(c1ncccc1CNc1nc(Nc2ccc3c(c2)CC(=O)N3)ncc1C(F)(F)F)S(C)(=O)=O", 0.1],
  ["Cl.Cl.Fc1cc(-c2cccc3ncc(-c4cnn(C5CCNCC5)c4)nc23)cc(F)c1CN1CCOCC1 [NVP-BSK805 2HCl]", 0.8]
]}

State its ΔTm Average on UniProt:E9AMP2: CC1(COc2ccc3c(c2)ncn3-c2ccc3cccc(N4CCC(N)CC4)c3n2)COC1 0.2

Data origin: paper PMC7619385
